Note to self: these compounds have pKi reported for the protein given by its sequence in various publications.
Target chain: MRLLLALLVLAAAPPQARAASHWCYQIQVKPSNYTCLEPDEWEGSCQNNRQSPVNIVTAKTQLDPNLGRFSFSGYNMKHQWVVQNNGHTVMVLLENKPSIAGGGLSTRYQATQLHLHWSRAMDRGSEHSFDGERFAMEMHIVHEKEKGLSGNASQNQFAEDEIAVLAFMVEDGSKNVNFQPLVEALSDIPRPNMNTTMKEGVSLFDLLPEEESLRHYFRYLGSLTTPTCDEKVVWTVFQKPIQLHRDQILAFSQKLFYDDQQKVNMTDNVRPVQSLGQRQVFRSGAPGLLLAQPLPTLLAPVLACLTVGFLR
pKi is defined as minus the log10 of a concentration measured in mol/L.

response.value for `NS(=O)(=O)c1ccc(CNC(=O)Nc2ccccc2)cc1` (field: pKi) = 6.85

response.value for `NCC(=O)Nc1ccc2nc(S(N)(=O)=O)sc2c1` (field: pKi) = 7.14

response.value for `C[C@H](CCC(=O)Nc1ccc(S(N)(=O)=O)cc1Cl)[C@H]1CC[C@H]2[C@@H]3CC[C@@H]4C[C@H](O)CC[C@]4(C)[C@H]3C[C@H](O)[C@]12C` (field: pKi) = 6.82

response.value for `C[C@H](CCC(=O)Nc1ccc(S(N)(=O)=O)cc1I)[C@H]1CC[C@H]2[C@@H]3CC[C@@H]4C[C@H](O)CC[C@]4(C)[C@H]3CC[C@]12C` (field: pKi) = 7.16

response.value for CC(C)C(C(=O)NO)N(Cc1ccccc1)S(=O)(=O)C(F)(F)C(F)(F)C(F)(F)C(F)(F)F (stereo not drawn) (field: pKi) = 6.91

response.value for `CN(CC(=O)Nc1ccc(S(=O)(=O)Nc2nnc(S(N)(=O)=O)s2)cc1)C(=N)N` (field: pKi) = 8.30

response.value for `NS(=O)(=O)c1nc2ccc(OCCOC(=O)CN(CCOCCOCCN(CC(=O)O)CC(=O)O)CC(=O)O)cc2s1` (field: pKi) = 8.22

response.value for `NS(=O)(=O)c1ccc(COC(=O)CN(CCN(CCN(CC(=O)O)CC(=O)O)CC(=O)O)CC(=O)O)cc1` (field: pKi) = 6.58

response.value for `NS(=O)(=O)c1ccc(NNC(=O)C(F)(F)C(F)(F)C(F)(F)C(F)(F)C(F)(F)C(F)(F)C(F)(F)C(F)(F)F)cc1` (field: pKi) = 6.08

response.value for `NS(=O)(=O)c1nc2ccc(OC(=O)c3c(F)c(F)c(F)c(F)c3F)cc2s1` (field: pKi) = 8.05

response.value for `NS(=O)(=O)c1ccc(CCNC(=S)Nc2ccccc2)cc1` (field: pKi) = 7.15

response.value for `NS(=O)(=O)c1nnc(NC(=O)CCCCC(F)(F)C(F)(F)F)s1` (field: pKi) = 8.00

response.value for `C[C@H](CCC(=O)/N=c1\sc(S(N)(=O)=O)nn1C)[C@H]1CC[C@H]2[C@@H]3CC[C@@H]4C[C@H](O)CC[C@]4(C)[C@H]3C[C@H](O)[C@]12C` (field: pKi) = 7.20

response.value for `CCc1cc(-c2ccccc2)cc(CC)[n+]1CC(=O)Nc1c(S(N)(=O)=O)cc(S(N)(=O)=O)c(Cl)c1Cl` (field: pKi) = 7.46

response.value for `Cn1nc(S(N)(=O)=O)s/c1=N/S(=O)(=O)c1cccc(C(=O)O)c1` (field: pKi) = 7.82

response.value for `NS(=O)(=O)c1ccc(CCNC(=O)c2c(F)c(F)c(F)c(F)c2F)cc1` (field: pKi) = 6.51

response.value for `NS(=O)(=O)c1ccc(NC(=O)CN(CCN(CC(=O)O)CC(=O)Nc2ccc(S(N)(=O)=O)cc2F)CC(=O)O)c(F)c1` (field: pKi) = 7.46

response.value for `NS(=O)(=O)c1ccc(NS(=O)(=O)c2ccc(NS(=O)(=O)C(F)(F)F)cc2)cc1` (field: pKi) = 7.40
